FYI, the data here is from ChEMBL document CHEMBL5244205.

# Test method notes: Oral availability in Sprague-Dawley rat at 1 mg/kg measured up to 24 hrs by LC-MS/MS analysis
# Type: ADME, organism-based
# Conditions: in vivo
Value type: bioavailability (%)
Answer in %, number only, no unit symbol.

[
  {
    "Molecule": "C[C@@H]1CCN(C(=O)CC#N)C[C@@H]1n1ccc2cnc3[nH]ccc3c21",
    "Value type": "bioavailability",
    "Readout number": 103
  },
  {
    "Molecule": "C[C@@H]1CCN(C(=O)CC#N)C[C@@H]1n1c(=O)[nH]c2cnc3[nH]ccc3c21 (racemic)",
    "Value type": "bioavailability",
    "Readout number": 11.2
  }
]

Next, consider the following molecule.
Read the entry "C[C@@H]1CCN(C(=O)CC#N)C[C@@H]1n1ccc2cnc3[nH]cc(C#N)c3c21" and write its reported bioavailability.
82.4
